Measured IC50 (nM), residual enzyme activity, listed per entry for reference.
Experimental System: human plasma kallikrein (activated with factor XIIa) (human, UniProt P03952 20-638)
Sequence (P03952 20-638 limits assumed): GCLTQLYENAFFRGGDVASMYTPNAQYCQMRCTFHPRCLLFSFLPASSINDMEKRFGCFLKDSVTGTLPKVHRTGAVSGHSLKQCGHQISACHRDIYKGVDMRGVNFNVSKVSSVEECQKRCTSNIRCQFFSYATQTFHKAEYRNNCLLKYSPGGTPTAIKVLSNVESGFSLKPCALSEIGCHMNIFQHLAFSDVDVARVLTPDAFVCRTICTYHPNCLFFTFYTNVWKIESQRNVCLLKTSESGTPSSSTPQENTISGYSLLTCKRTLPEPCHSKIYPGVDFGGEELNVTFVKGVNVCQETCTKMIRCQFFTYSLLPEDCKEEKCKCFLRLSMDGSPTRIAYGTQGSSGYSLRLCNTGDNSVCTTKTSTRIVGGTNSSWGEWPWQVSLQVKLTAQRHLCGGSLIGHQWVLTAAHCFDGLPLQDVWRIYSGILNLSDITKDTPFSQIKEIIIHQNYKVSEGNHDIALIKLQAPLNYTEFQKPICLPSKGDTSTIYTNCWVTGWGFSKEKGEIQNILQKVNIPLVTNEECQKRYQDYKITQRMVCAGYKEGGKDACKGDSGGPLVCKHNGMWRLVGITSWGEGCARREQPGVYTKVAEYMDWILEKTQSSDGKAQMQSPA
Assay Procedure: cell-based or functional assay
*1 amine or outer side, *2 acyl side, *3 side chain or, on linkers, in order; H or OH if unused. Bridges are numbered along the chain shown (N, C = ends). TBMB = c1c(C[*:1])cc(C[*:3])cc1C[*:2]
Observation Type: IC50 (nM), residual enzyme activity

Binder	Observation Type	Modifier Sign	Val
H-ACSDRFRNCPADEALCG-NH2 (linker 2-9-16 via TBMB, Chemically synthesized 17-mer reacted with TBMB; also called conjugate PK15; peptide conjugate PK15) [TBMB modified peptide PK15 (bi-cyclic peptide)]	IC50 (nM), residual enzyme activity	=	1.7
H-ACSDRFRNCPADEALCG-NH2 (cysteine pairing not given here) [linear synthetic peptide PK15 (not TBMB modified)]	IC50 (nM), residual enzyme activity	>	10000
H-ACSDRFRNCPLWSGTCG-NH2 (cysteine pairing not given here) [linear synthetic peptide PK2 (not TBMB modified)]	IC50 (nM), residual enzyme activity	>	10000
H-ACSDRFRNCPLWSGTCG-NH2 (linker 2-9-16 via TBMB; SMILES CC(C)C[C@@H]1NC(=O)[C@@H]2CCCN2C(=O)[C@@H]2CSCc3cc(cc(c3)CSC[C@@H](C(=O)NCC(N)=O)NC(=O)[C@H]([C@@H](C)O)NC(=O)CNC(=O)[C@H](CO)NC(=O)[C@H](Cc3c[nH]c4ccccc34)NC1=O)CSC[C@H](NC(=O)[C@H](C)N)C(=O)N[C@@H](CO)C(=O)N[C@@H](CC(=O)O)C(=O)N[C@@H](CCCNC(=N)N)C(=O)N[C@@H](Cc1ccccc1)C(=O)N[C@@H](CCCNC(=N)N)C(=O)N[C@@H](CC(N)=O)C(=O)N2) [TBMB modified synthetic peptide PK2 (bi-cyclic peptide)]	IC50 (nM), residual enzyme activity	=	28.6
H-ACSTERRYCPIEIFPCG-NH2 (linker 2-9-16 via TBMB; SMILES CC[C@H](C)[C@@H]1NC(=O)[C@H](CCC(=O)O)NC(=O)[C@H]([C@@H](C)CC)NC(=O)[C@@H]2CCCN2C(=O)[C@@H]2CSCc3cc(cc(c3)CSC[C@@H](C(=O)NCC(N)=O)NC(=O)[C@@H]3CCCN3C(=O)[C@H](Cc3ccccc3)NC1=O)CSC[C@H](NC(=O)[C@H](C)N)C(=O)N[C@@H](CO)C(=O)N[C@@H]([C@@H](C)O)C(=O)N[C@@H](CCC(=O)O)C(=O)N[C@@H](CCCNC(=N)N)C(=O)N[C@@H](CCCNC(=N)N)C(=O)N[C@@H](Cc1ccc(O)cc1)C(=O)N2) [TBMB modified synthetic peptide PK4 (bi-cyclic peptide)]	IC50 (nM), residual enzyme activity	=	33
H-ACSTERRYCPIEIFPCG-NH2 (cysteine pairing not given here) [linear synthetic peptide PK4 (not TBMB modified)]	IC50 (nM), residual enzyme activity	=	7180
